B1: PhoQ; a variant is named by its letters at X, in order, P23837 (parent)
chain: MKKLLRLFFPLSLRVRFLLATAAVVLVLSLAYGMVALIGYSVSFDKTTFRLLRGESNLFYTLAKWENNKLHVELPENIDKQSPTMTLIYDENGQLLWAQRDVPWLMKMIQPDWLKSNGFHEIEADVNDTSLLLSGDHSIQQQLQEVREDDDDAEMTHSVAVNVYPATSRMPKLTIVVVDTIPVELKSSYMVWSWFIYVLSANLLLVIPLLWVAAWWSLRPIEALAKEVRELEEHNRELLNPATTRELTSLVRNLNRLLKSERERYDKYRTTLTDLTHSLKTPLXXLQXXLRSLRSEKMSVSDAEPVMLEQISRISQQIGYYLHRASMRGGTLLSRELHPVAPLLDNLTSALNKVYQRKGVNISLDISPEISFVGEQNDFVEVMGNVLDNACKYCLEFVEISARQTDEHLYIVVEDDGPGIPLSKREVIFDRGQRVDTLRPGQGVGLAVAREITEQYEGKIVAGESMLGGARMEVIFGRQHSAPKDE

Variants of: B1
test-method-notes: enrichment ratio after two sorts for PhoP signalling (ratio (wild type AVST 3.29)); higher = more functional
condition-context: with PhoP (E. coli)
The full ranking holds about 140,000 sequences; the median of “enrichment ratio after two sorts for PhoP signalling” is about 0, and the highest 2% start at about 11. This is one part of a sample in which the highest values are shown more often than they occur.

| variant-spec | enrichment ratio |
| --- | --- |
| PYIP | ≤ 0.25 |
| KYSS | ≤ 0.25 |
| VQAF | ≤ 0.25 |
| NVSS | ≤ 0.25 |
| DVMR | ≤ 0.25 |
| NEDI | ≤ 0.25 |
| QQDM | ≤ 0.25 |
| WHVS | ≤ 0.25 |
| RRRI | ≤ 0.25 |
| AEDK | ≤ 0.25 |
| AEHK | ≤ 0.25 |
| SPSS | ≤ 0.25 |
